# Target or test system: Gamma-secretase
# Procedure summary: Modulation of gamma-secretase activity in human H4 cells expressing APP695 assessed as increase in amyloid beta38 production after 20 to 24 hrs by liquid phase electrochemiluminescence assay
# Assay type: cell-based
Quick reference for IC50 among some compounds

compound="CCCCCCCCn1c2ccc(Cl)cc2c2ccc(C(C)C(=O)O)cc21 (stereo not given)" value_kind=IC50 result="100 µM"
compound=CCCCCCCCn1c2ccccc2c2ccc(OCC#N)cc21 value_kind=IC50 result="74 µM"
compound=CCCCCCCCn1c2ccccc2c2ccc(OCc3nn[nH]n3)cc21 value_kind=IC50 result="165 µM"
compound=CCCCCCCCn1c2ccccc2c2ccc(OCCN)cc21 value_kind=IC50 result="> 80 µM"

stdin: I have this compound here, CCCCCCCCn1c2ccccc2c2ccc(OC3=C(O)C(Cc4ccccc4)N(Cc4ccc5c(c4)OCO5)C3=O)cc21 (stereo not given) , and I need its recorded IC50.
stdout: 31 µM
